Each entry below carries its recorded logP.
Assay: logP determination by HPLC on a reversed-phase column (C 18), EEC Directive 79/831 Annex V.A8
Format: physicochemical
Conditions: method marker [b]; isomer A / isomer B / isomer mixture as noted in the cell

1) Cc1cc(C)nc(/C(N)=N/OCCCCO/N=C(\N)c2nc(C)cc(C)n2)n1    1.73^[b]
2) N/C(=N\OCCCCO/N=C(\N)c1ncc(F)cc1F)c1ncc(F)cc1F    2.45^[b]
3) C=C(CON=C(C)c1cccc(C)n1)CON=C(C)c1cc(C(F)(F)F)cc(C)n1    5.70^[b]
4) C=C(CON=C(C)c1cccc(C)n1)CON=C(N)c1ncc(C(F)(F)F)cc1Cl    3.50^[b]

// below: logP requested for another compound
Prompt: Param item = C=C(CON=C(C)c1cccc(C)n1)CON=C(N)c1nccc(C)n1 ; retrieve measured logP.
Completion: 1.73^[b]

* * *

Each entry below carries its recorded logP.
Test: logP determination by HPLC on a reversed-phase column (C 18), EEC Directive 79/831 Annex V.A8
Format: physicochemical
Settings: value marked [c]

1) CC(=NOCC1(CON=C(C)c2ccc(C)c(C)n2)CC1)c1cccc(C)n1    5.70^[c]

Prompt: Param item = COc1cc(C)nc(C(C)=NOCC(C)(C)CON=C(C)c2cc(OC)cc(C)n2)c1 ; retrieve measured logP.
Completion: 5.79^[c]

Prompt: Param item = C#CCOc1ccc(C(C)=NOCC(C)CON=C(C)c2ccc(OCC#C)c(C)n2)nc1C (centres unmarked) ; retrieve measured logP.
Completion: 5.44^[c]

Prompt: Param item = CC(=NOC[Si](C)(CON=C(C)c1cccc(C)n1)C(C)C)c1cccc(C)n1 ; retrieve measured logP.
Completion: 7.35^[c]

Prompt: Param item = CC[Si](CC)(CON=C(C)c1cc(C)cc(C)n1)CON=C(C)c1cc(C)cc(C)n1 ; retrieve measured logP.
Completion: 7.36^[c]

Prompt: Param item = CCC(C)(CON=C(C)c1ccc(C)c(C)n1)CON=C(C)c1ccc(C)c(C)n1 (centres unmarked) ; retrieve measured logP.
Completion: 7.27^[c]

* * *

Assay: logP determination by HPLC on a reversed-phase column (C 18), EEC Directive 79/831 Annex V.A8
Format: physicochemical
Conditions: value marked [b]
Each entry below carries its recorded logP.

1) CC(=NOCCCCON=C(C)c1cccc(C)n1)c1ccc2c(c1)OCO2    4.35^[b]

// below: logP requested for another compound
Prompt: Param item = CC(=NOCC(C)(C)CON=C(C)c1cccc2ccccc12)c1cccc(C)n1 ; retrieve measured logP.
Completion: 5.90^[b]

* * *

Test: logP determination by HPLC on a reversed-phase column (C 18), EEC Directive 79/831 Annex V.A8
Format: physicochemical
Conditions: method marked [c] in Table 1
result_type: logP

The examples below pair each entry with its known result.
1. COC(CON=C(C)c1cc(C)cc(C)n1)CON=C(C)c1cc(C)cc(C)n1 (stereo not shown)    4.91^[c]
2. CC(=NOCc1cccc(CON=C(C)c2cccc(C)n2)n1)c1cccc(C)n1    4.33^[c]

Prompt: Param item = CC(=NOCC(CON=C(C)c1cc(C)cc(C)n1)c1ccccc1)c1cc(C)cc(C)n1 (stereo not shown) ; retrieve measured logP.
Completion: 6.33^[c]

Prompt: Param item = CC(=NOCC(CON=C(C)c1nc(C)ccc1C)C(C)C)c1nc(C)ccc1C (single isomer, unassigned) [Compound 753] ; retrieve measured logP.
Completion: 5.95^[c]
